Tested on: MDA-MB-435
PROCEDURE_DETAILS: NCI tumour cell line growth inhibition, 48 h
OUTCOME_MEASURE: TGI (µM)
The response must be a number in µM with no trailing unit.

| MOLECULE | OUTCOME_MEASURE | MEASUREMENT_UNIT | READING |
| --- | --- | --- | --- |
| CCC(C)C1NC(=O)C(NC(=O)C(CC(C)C)N(C)C(=O)[C@@H]2C=CCN2C(=O)[C@H](C)O)C(C)OC(=O)[C@H](Cc2ccc(OC)cc2)N(C)C(=O)[C@@H]2CCCN2C(=O)[C@H](CC(C)C)NC(=O)C(C)C(=O)[C@H](C(C)C)OC(=O)CC1O (stereo not given in full) | TGI | µM | 0.0132 |
| Cn1cc(-c2csc(-c3c[nH]c4ccccc34)n2)c2cccnc21 | TGI | µM | 0.323 |

Look at this molecule and give its reported TGI. CC1(c2ccc(Cl)cc2)NC(=NCCO)c2ccccc21 (stereo not given)
32.6

Please give the result for CCNCCNc1cc(-c2ccc(Cl)c(Cl)c2)c(C#N)c2nc3ccccc3n12 too.
3.14

Please give the result for CCCCCCC(O)(c1ccc(F)cc1)C(CN1CCOCC1)c1ccccc1 (stereo not given) too.
41.7
